- TEST DETAILS: Pharmacokinetics of DPB after oral DPB or NaDPB and IV NaDPB in Sprague-Dawley rats
- Type: in vivo
- SETTINGS: male, Sprague-Dawley, rat, in vivo, po, 150 mg/kg, Sprague-Dawley rats, male, oral 150 mg/kg, analyte DPB in plasma; read-out: AUC0-t

COMPOUND	AUC(0-t) / µg·h/mL
O=C1NC(=O)C(c2ccccc2)(c2ccccc2)C(=O)N1.[Na] [NaDPB, sodium 5,5-diphenyl barbiturate]	3410
O=C1NC(=O)C(c2ccccc2)(c2ccccc2)C(=O)N1 [DPB, 5,5-diphenyl barbituric acid, reference compound]	776

###

- TEST DETAILS: Pharmacokinetics of DPB after oral DPB or NaDPB and IV NaDPB in Beagle dogs
- Type: in vivo
- SETTINGS: dog, in vivo, oral 75 mg/kg, analyte DPB in plasma

COMPOUND	Cmax
O=C1NC(=O)C(c2ccccc2)(c2ccccc2)C(=O)N1 [DPB, 5,5-diphenyl barbituric acid, reference compound]	18700 ng/mL
O=C1NC(=O)C(c2ccccc2)(c2ccccc2)C(=O)N1.[Na] [NaDPB, sodium 5,5-diphenyl barbiturate]	54200 ng/mL
